All figures here come from patent EP4741383A1.

target: SHP1 (Homo sapiens); construct: made in house; host or cells: E. coli; test: Tyrosine phosphatase selectivity (pNPP substrate), SHP1; type: biochemical; details: selectivity ratio SHP1 over SHP2
Sequence (P29350 whole entry): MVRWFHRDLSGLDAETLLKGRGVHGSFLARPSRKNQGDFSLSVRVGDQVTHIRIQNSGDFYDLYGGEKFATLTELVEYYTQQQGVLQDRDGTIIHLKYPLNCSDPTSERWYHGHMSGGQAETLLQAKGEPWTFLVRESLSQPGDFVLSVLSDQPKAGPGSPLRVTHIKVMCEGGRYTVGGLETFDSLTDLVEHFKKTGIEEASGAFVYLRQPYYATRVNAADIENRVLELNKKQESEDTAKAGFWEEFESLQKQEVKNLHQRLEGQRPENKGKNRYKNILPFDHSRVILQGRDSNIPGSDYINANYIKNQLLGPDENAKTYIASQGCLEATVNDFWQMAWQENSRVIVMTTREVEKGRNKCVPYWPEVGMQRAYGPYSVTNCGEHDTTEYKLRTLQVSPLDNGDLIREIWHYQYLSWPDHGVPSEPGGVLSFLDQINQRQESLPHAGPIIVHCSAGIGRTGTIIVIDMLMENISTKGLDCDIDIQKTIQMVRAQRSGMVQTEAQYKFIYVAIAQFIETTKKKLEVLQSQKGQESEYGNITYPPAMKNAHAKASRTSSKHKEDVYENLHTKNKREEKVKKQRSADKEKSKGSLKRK
IC50PTP/IC50SHP2 SHP1 under 8 gets 1.0, anything at or over 8 gets 0.0.

compound: O=C(Nc1ccc(-c2ccsc2)cc1)C(=O)Nc1ccc(-c2cc3ccc(-c4nnn[nH]4)nc3n2C2CCC2)cc1
qualitative label: 0.0

compound: O=C(Nc1ccc(-c2ccsc2)cc1)C(=O)Nc1ccc(-c2cc3cc(F)c(-c4nnn[nH]4)nc3n2C2CCC2)cc1
qualitative label: 0.0

compound: O=C(Nc1ccc(-c2oc3cc(F)c(-c4nnn[nH]4)cc3c2C2CCC2)cc1)C(=O)Nc1ccc(N2CCC3(CCOC3)CC2)cc1
qualitative label: 1.0

compound: O=C(Nc1ccc(-c2ccsc2)cc1)C(=O)Nc1ccc(-c2cc3cc(F)c(-c4nnn[nH]4)cc3n2C2CCC2)cc1
qualitative label: 0.0

-- ask In plain terms, does O=C(Nc1ccc(-c2cc3cc(F)c(-c4nnn[nH]4)cc3n2C2CCC2)cc1)C(=O)Nc1ccc(N2CC3COCC3C2)cc1 (stereo not shown) come in under 8 for IC50PTP/IC50SHP2 SHP1?
-- reply 1.0

-- ask In plain terms, does Cn1cc(-c2ccc(NC(=O)C(=O)Nc3ccc(-c4cc5cc(F)c(-c6noc(=O)[nH]6)cc5n4C4CCC4)cc3)cc2)cn1 come in under 8 for IC50PTP/IC50SHP2 SHP1?
-- reply 1.0

-- ask In plain terms, does O=C(Nc1ccc(-c2cc3cc(F)c(-c4nnn[nH]4)cc3n2C2CCC2)cc1)C(=O)Nc1ccc(N2CCC3(CCOC3)CC2)cc1 come in under 8 for IC50PTP/IC50SHP2 SHP1?
-- reply 1.0

-- ask In plain terms, does Cn1c(-c2cccc(NC(=O)C(=O)Nc3ccc(-c4ccsc4)cc3)c2)c(I)c2cc(C(=O)O)c(O)cc21 [Example 11a-1, reference compound] come in under 8 for IC50PTP/IC50SHP2 SHP1?
-- reply 1.0

-- ask In plain terms, does O=C(Nc1ccc(-c2cc3cc(F)c(-c4nnn[nH]4)cc3n2C2CCC2)cc1)C(=O)Nc1ccc(N2CCOCC2)cc1 come in under 8 for IC50PTP/IC50SHP2 SHP1?
-- reply 1.0

-- ask In plain terms, does O=C(Nc1ccc(-c2ccsc2)cc1)C(=O)Nc1ccc(-c2cc3cnc(-c4nnn[nH]4)nc3n2C2CCC2)cc1 come in under 8 for IC50PTP/IC50SHP2 SHP1?
-- reply 0.0

-- ask In plain terms, does O=C(Nc1ccc(-c2ccsc2)cc1)C(=O)Nc1ccc(-c2oc3cc(F)c(-c4nnn[nH]4)cc3c2C2CCC2)cc1 come in under 8 for IC50PTP/IC50SHP2 SHP1?
-- reply 0.0

* * *

tested on: KYSE520; assay: CellTiter-Glo cell proliferation inhibition, KYSE520; type: cell-based, human; conditions: Homo sapiens, KYSE-520; KYSE520 cells, 120 hours, CellTiter-Glo
IC50 by entry:

Some solved entries appear below for comparison.
compound: O=C(Nc1ccc(-c2cc3cc(F)c(-c4nnn[nH]4)cc3n2C2CCC2)cc1)C(=O)Nc1ccc(N2CC3CC(CO)CC3C2)cc1 (stereo not drawn)
IC50: 0.105 µM
--
compound: CC1(O)CCC2(CCN(c3ccc(NC(=O)C(=O)Nc4ccc(-c5cc6cc(F)c(-c7nnn[nH]7)cc6n5C5(C)CCC5)cc4)cc3)CC2)CC1
IC50: 0.105 µM
--
compound: CC1(n2c(-c3ccc(NC(=O)C(=O)Nc4ccc(N5CC6(CCC(O)CC6)C5)cc4)cc3)cc3cc(F)c(-c4nnn[nH]4)cc32)CCC1
IC50: 0.097 µM
--
compound: O=C(Nc1ccc(-c2ccsc2)cc1)C(=O)Nc1ccc(-c2cc3cc(F)c(-c4nnn[nH]4)c(F)c3n2C2CCC2)cc1
IC50: 0.334 µM
--
compound: CC1(n2c(-c3ccc(NC(=O)C(=O)Nc4ccc(-c5cnn(C6CCOCC6)c5)cc4)cc3)cc3cc(F)c(-c4nnn[nH]4)cc32)CC1
IC50: 0.071 µM

-- ask Enter reported IC50 observed with KYSE520 for CC1(n2c(-c3ccc(NC(=O)C(=O)Nc4ccc(N5CC[C@H](CO)C5)cc4)cc3)cc3cc(F)c(-c4nnn[nH]4)cc32)CCC1
-- reply 0.182 µM

-- ask Enter reported IC50 observed with KYSE520 for O=C(Nc1ccc(-c2cc3cc(F)c(-c4nnn[nH]4)cc3n2C2CCC2)cc1)C(=O)Nc1ccc(N2CCC3(CCOC3)C2)cc1 (stereo not drawn)
-- reply 0.126 µM

-- ask Enter reported IC50 observed with KYSE520 for O=C(Nc1ccc(-c2cc3cc(F)c(-c4nnn[nH]4)cc3n2C2CCC2)cc1)C(=O)Nc1ccc(N2CCC(C3COC3)CC2)cc1
-- reply 0.036 µM

-- ask Enter reported IC50 observed with KYSE520 for CC1(O)CCC2(CC1)CN(c1ccc(NC(=O)C(=O)Nc3ccc(-c4cc5cc(F)c(-c6nnn[nH]6)cc5n4C4CCC4)cc3)cc1)C2
-- reply 0.163 µM

-- ask Enter reported IC50 observed with KYSE520 for O=C(Nc1ccc(-c2cc3cc(F)c(-c4nnn[nH]4)cc3n2C2CCC2)cc1)C(=O)Nc1ccc(N2CCC3(CC2)CC(CO)C3)cc1
-- reply 0.059 µM

-- ask Enter reported IC50 observed with KYSE520 for O=C(Nc1ccc(-c2oc3cc(F)c(-c4nnn[nH]4)cc3c2C2CCC2)cc1)C(=O)Nc1ccc(N2CCC3(CCOC3)CC2)cc1
-- reply 0.68 µM

-- ask Enter reported IC50 observed with KYSE520 for CC1(n2c(-c3ccc(NC(=O)C(=O)Nc4ccc(N5CCC6(CCOC6)CC5)cc4)cc3)cc3cc(F)c(-c4nnn[nH]4)cc32)CCC1
-- reply 0.057 µM
